Molecular target: human Y2 receptor (human) (UniProt P49146)
Sequence (P49146 whole entry): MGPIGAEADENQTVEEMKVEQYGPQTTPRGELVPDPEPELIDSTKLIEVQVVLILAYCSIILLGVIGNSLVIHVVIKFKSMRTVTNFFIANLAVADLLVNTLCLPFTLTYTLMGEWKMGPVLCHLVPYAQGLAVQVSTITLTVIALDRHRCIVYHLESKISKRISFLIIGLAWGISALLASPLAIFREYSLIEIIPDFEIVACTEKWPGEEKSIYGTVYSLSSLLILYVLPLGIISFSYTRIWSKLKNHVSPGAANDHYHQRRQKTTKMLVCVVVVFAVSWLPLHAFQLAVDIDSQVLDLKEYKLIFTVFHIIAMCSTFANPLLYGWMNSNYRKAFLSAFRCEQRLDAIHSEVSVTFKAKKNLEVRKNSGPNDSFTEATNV
Experiment: RBA: displacement of [125I]-PYY from hY2R/CHO membranes
Non-standard residues stand in square brackets, D forms with d. 4Pal = N[C@@H](Cc1ccncc1)C(=O)O; Cha = N[C@@H](CC1CCCCC1)C(=O)O; Aib = CC(C)(N)C(=O)O
ENDPOINT NAME: IC50 Ratio (IC50 compound/IC50 PYY(3-36))
Reply briefly: the number, and no unit.

- BINDER: "Ac-S[dP][Aib][4Pal][Cha][Aib]NK[Aib]TRQR[Cha]-NH2 (SMILES CC(=O)N[C@@H](CO)C(=O)N1CCC[C@@H]1C(=O)NC(C)(C)C(=O)N[C@@H](Cc1ccncc1)C(=O)N[C@@H](CC1CCCCC1)C(=O)NC(C)(C)C(=O)N[C@@H](CC(N)=O)C(=O)N[C@@H](CCCCN)C(=O)NC(C)(C)C(=O)N[C@H](C(=O)N[C@@H](CCCNC(=N)N)C(=O)N[C@@H](CCC(N)=O)C(=O)N[C@@H](CCCNC(=N)N)C(=O)N[C@@H](CC1CCCCC1)C(N)=O)[C@@H](C)O) [Ac-[D-Pro24, Aib25,28,31, Pya(4)26, Cha27,36, Lys30]-PYY(23-36)]"
  OBSERVED: 8.4

Moving on to another binder below.
Q. Bench note: what IC50 Ratio (IC50 compound/IC50 PYY(3-36)) did Ac-S[dP]R[4Pal][Cha][Aib]NW[Aib]TRQR[Cha]-NH2 (SMILES CC(=O)N[C@@H](CO)C(=O)N1CCC[C@@H]1C(=O)N[C@@H](CCCNC(=N)N)C(=O)N[C@@H](Cc1ccncc1)C(=O)N[C@@H](CC1CCCCC1)C(=O)NC(C)(C)C(=O)N[C@@H](CC(N)=O)C(=O)N[C@@H](Cc1c[nH]c2ccccc12)C(=O)NC(C)(C)C(=O)N[C@H](C(=O)N[C@@H](CCCNC(=N)N)C(=O)N[C@@H](CCC(N)=O)C(=O)N[C@@H](CCCNC(=N)N)C(=O)N[C@@H](CC1CCCCC1)C(N)=O)[C@@H](C)O) [Ac-[D-Pro24, Pya(4)26, Cha27,36, Aib28,31, Trp30]-PYY(23-36)] show?
A. 2.5

All values here come from patent US20120172293A1.
